assay-summary: Chemical stability in pH 7.4 potassium phosphate buffer assessed as half life for compound hydrolysis at 37 degC by UPLC and mass spectrometry
Assay type: physicochemical
Outcome label depends on half-life relative to 200 h: at/above gives label 1, below gives label 0.

- compound: "NC(=O)OC[C@@H]1[C@H](NC(=O)/C(=N\\OCC(=O)O)c2csc(N)n2)C(=O)N1S(=O)(=O)O [CARUMONAM]"
  answer-label: "label 1"
- compound: "N=C(N)NCc1cn(C[C@@H]2[C@H](NC(=O)/C(=N\\OC3(C(=O)O)CC3)c3csc(N)n3)C(=O)N2S(=O)(=O)O)nn1 (stereo in doubt)"
  answer-label: "label 0"
- compound: "CC(C)(O/N=C(\\C(=O)N[C@@H]1C(=O)N(S(=O)(=O)O)[C@@H]1CN1CCOC1=O)c1csc(N)n1)C(=O)O (stereo in doubt)"
  answer-label: "label 1"
- compound: "CC(C)(O/N=C(/C(=O)N[C@@H]1C(=O)N(OS(=O)(=O)O)C1(C)C)c1csc(N)n1)C(=O)O (stereo in doubt)"
  answer-label: "label 0"
- compound: "CC(C)(O/N=C(\\C(=O)N[C@@H]1C(=O)N(S(=O)(=O)O)[C@@H]1Cn1cncn1)c1csc(N)n1)C(=O)O (stereo in doubt)"
  answer-label: "label 1"
- compound: "CC(C)(O/N=C(/C(=O)N[C@@H]1C(=O)N(S(=O)(=O)O)[C@@H]1CF)c1csc(N)n1)C(=O)O (stereo in doubt)"
  answer-label: "label 1"
- compound: "CC(C)(O/N=C(\\C(=O)N[C@@H]1C(=O)N(S(=O)(=O)O)[C@@H]1Cn1nccn1)c1csc(N)n1)C(=O)O (stereo in doubt)"
  answer-label: "label 1"
